Entries annotated with measured Population Hoechst High Intensity Objects (%)
Tested on: U2OS
Test: Multiplex assay against U2OS
Assay type: toxicity, cell-based
Details: human, 12 h, 1 µM, compound concentration 1 uM, replicate 2
The figure you give is taken to be in %; do not add the unit.

Compound	System Tested	Numeric Value
CCN1CCN(c2ccc(Nc3cc(N(C)C(=O)Nc4c(Cl)c(OC)cc(OC)c4Cl)ncn3)cc2)CC1 [INFIGRATINIB]	U2OS	10
O=C(Nc1ccc(-n2nc(-c3cccnc3)cc2C(F)(F)F)cn1)c1ccc(-c2ccccc2)c(F)c1 [BI 2049]	U2OS	8
CCCS(=O)(=O)Nc1ccc(F)c(C(=O)c2c[nH]c3ncc(Cl)cc23)c1F [PLX-4720]	U2OS	15

API: the following record is the query input.
Find the recorded Population Hoechst High Intensity Objects (%) belonging to C=CCn1c(=O)c2cnc(Nc3ccc(N4CCN(C)CC4)cc3)nc2n1-c1cccc(C(C)(C)O)n1 [ADAVOSERTIB] and report it.
5
